Measured values drawn from ChEMBL document CHEMBL3792317 for this set.

Assay: Cytotoxicity against human THP1 cells after 48 hrs by MTT assay
Assay type: cell-based, THP-1
Conditions: THP1 cells
measurement.kind: GI50 at 48 h

Inquiry: Look at this compound and give its reported GI50 at 48 h. "Cc1ccc2cc(/C=C3\SC(=S)N(CC(=O)O)C3=O)c3nnnn3c2c1"
Reply text: > 100 µg/mL

Inquiry: Also, "O=C1NC(=S)S/C1=C\c1cc2ccccc2n2nnnc12" please.
Reply text: > 100 µg/mL

Inquiry: Please give the result for "Cc1ccc2c(c1)cc(/C=C1\SC(=S)NC1=O)c1nnnn12" too.
Reply text: 63.3 µg/mL

Inquiry: And then "CC(=O)O[C@H]1C(=O)[C@@]2(C)[C@H]([C@H](OC(=O)c3ccccc3)[C@]3(O)C[C@H](OC(=O)[C@H](O)[C@@H](NC(=O)c4ccccc4)c4ccccc4)C(C)=C1C3(C)C)[C@]1(OC(C)=O)CO[C@@H]1C[C@@H]2O" , what is it?
Reply text: 0.137 µg/mL

Inquiry: What about "Cc1cccc2cc(/C=C3\SC(=S)NC3=O)c3nnnn3c12" ?
Reply text: > 100 µg/mL

Inquiry: Could you do the same for "COc1ccc2cc(/C=C3\SC(=S)N(CC(=O)O)C3=O)c3nnnn3c2c1" , please?
Reply text: > 100 µg/mL

Inquiry: Okay, and "Cc1ccc2cc(/C=C3\SC(=S)N(CCC(=O)O)C3=O)c3nnnn3c2c1" ?
Reply text: > 100 µg/mL

Inquiry: Continue with "Cc1ccc2cc(/C=C3\SC(=S)NC3=O)c3nnnn3c2c1"
Reply text: > 100 µg/mL

Inquiry: Quick one: "Cc1ccc2c(c1)cc(/C=C1\SC(=S)N(CC(=O)O)C1=O)c1nnnn12"
Reply text: > 100 µg/mL

Inquiry: Can you check "CO[C@H]1/C=C/O[C@@]2(C)Oc3c(C)c(O)c4c(O)c(c(/C=N/N5CCN(C)CC5)c(O)c4c3C2=O)NC(=O)/C(C)=C\C=C\[C@H](C)[C@H](O)[C@@H](C)[C@@H](O)[C@@H](C)[C@H](OC(C)=O)[C@@H]1C" next?
Reply text: > 100 µg/mL

----------
Assign MIC to each entry below.
Assay: Antitubercular activity against Mycobacterium bovis BCG ATCC 35743 incubated for 40 mins by XTT Reduction Menadione Assay
Type: functional, Mycobacterium bovis BCG str. ATCC 35743
Conditions: Mycobacterium tuberculosis variant bovis BCG, ATCC 35743, 40 min

Inquiry: I have this compound here, "CO[C@H]1/C=C/O[C@@]2(C)Oc3c(C)c(O)c4c(O)c(c(/C=N/N5CCN(C)CC5)c(O)c4c3C2=O)NC(=O)/C(C)=C\C=C\[C@H](C)[C@H](O)[C@@H](C)[C@@H](O)[C@@H](C)[C@H](OC(C)=O)[C@@H]1C" , and I need its recorded MIC.
Reply text: 0.89 µg/mL

Inquiry: For "COc1ccc2c(c1)cc(/C=C1\SC(=S)N(CCC(=O)O)C1=O)c1nnnn12" then?
Reply text: > 250 µg/mL

Inquiry: // query: "Cc1ccc2cc(/C=C3\SC(=S)N(CCC(=O)O)C3=O)c3nnnn3c2c1"
Reply text: 45.4 µg/mL

Inquiry: Next compound up: "O=C1NC(=S)S/C1=C\c1cc2ccccc2n2nnnc12"
Reply text: 168 µg/mL

----------
Test system: Mycobacterium tuberculosis
Experiment: Antitubercular activity against active Mycobacterium tuberculosis H37Ra ATCC 25177 incubated for 40 mins by XTT Reduction Menadione Assay
Assay type: functional
Conditions: H37Ra ATCC 25177, 40 min
measurement.kind: IC90 (µg/mL)
Use µg/mL as the unit, but write only the number.

Inquiry: For the molecule shown here, "Cc1ccc2c(c1)cc(/C=C1\SC(=S)N(CC(=O)O)C1=O)c1nnnn12" , give the reported IC90.
Reply text: 49.2

Inquiry: Moving on to "CO[C@H]1/C=C/O[C@@]2(C)Oc3c(C)c(O)c4c(O)c(c(/C=N/N5CCN(C)CC5)c(O)c4c3C2=O)NC(=O)/C(C)=C\C=C\[C@H](C)[C@H](O)[C@@H](C)[C@@H](O)[C@@H](C)[C@H](OC(C)=O)[C@@H]1C"
Reply text: 0.05

----------
Field: MIC. Provide a value for each of the compounds that follow.
System: Candida albicans
Experiment: Antifungal activity against Candida albicans NCIM 3471 after 48 hrs by agar cup plate method
Format: functional
Details: NCIM 3471, 48 h
Express your answer in µg/mL, writing the number without its unit.

Inquiry: What MIC value was documented for this compound, "O=C1NC(=S)S/C1=C\c1cc2ccccc2n2nnnc12" ?
Reply text: 150

Inquiry: Similarly, "Cc1ccc2c(c1)cc(/C=C1\SC(=S)NC1=O)c1nnnn12" ?
Reply text: 150

Inquiry: // repeat for "Cc1ccc2c(c1)cc(/C=C1\SC(=S)N(CCC(=O)O)C1=O)c1nnnn12" and report
Reply text: 100

Inquiry: Now consider "Cc1ccc2c(c1)cc(/C=C1\SC(=S)N(CC(=O)O)C1=O)c1nnnn12" .
Reply text: 25

Inquiry: Okay, and Clc1ccc(COC(Cn2ccnc2)c2ccc(Cl)cc2Cl)c(Cl)c1 (stereo unspecified) [MICONAZOLE] ?
Reply text: 25

Inquiry: Then "O=C(O)CCN1C(=O)/C(=C/c2cc3ccccc3n3nnnc23)SC1=S" ?
Reply text: 100

----------
Test system: Mycobacterium tuberculosis
Assay: Antitubercular activity against Mycobacterium tuberculosis H37Ra ATCC 25177 at 3 ug/ml incubated for 40 mins by XTT Reduction Menadione Assay
Type: functional
Details: H37Ra ATCC 25177, 40 min, read-out: GI
Consider the following molecules; for each one, report its inhibition of growth at 3 µg/mL.
Give the number; % is assumed, so skip it.

Inquiry: Requested read-out inhibition of growth at 3 µg/mL, target or system Mycobacterium tuberculosis, entry "Cc1ccc2cc(/C=C3\SC(=S)N(CCC(=O)O)C3=O)c3nnnn3c2c1"
Reply text: 16.6

Inquiry: Param item: "COc1ccc2c(c1)cc(/C=C1\SC(=S)NC1=O)c1nnnn12"
Reply text: 18.9

Inquiry: Same question, "COc1ccc2cc(/C=C3\SC(=S)N(CCC(=O)O)C3=O)c3nnnn3c2c1" this time
Reply text: 0.02

Inquiry: Try this molecule too: "O=C(O)CN1C(=O)/C(=C/c2cc3ccccc3n3nnnc23)SC1=S"
Reply text: 12.2

Inquiry: Proceed to "Cc1cccc2cc(/C=C3\SC(=S)N(CCC(=O)O)C3=O)c3nnnn3c12"
Reply text: -0.39

Inquiry: How about "COc1ccc2c(c1)cc(/C=C1\SC(=S)N(CCC(=O)O)C1=O)c1nnnn12" ?
Reply text: -0.42

Inquiry: Also "Cc1ccc2c(c1)cc(/C=C1\SC(=S)N(CC(=O)O)C1=O)c1nnnn12" ?
Reply text: 17.5

Inquiry: What about "Cc1ccc2c(c1)cc(/C=C1\SC(=S)NC1=O)c1nnnn12" ?
Reply text: 21.9

Inquiry: Please give the result for "O=C1NC(=S)S/C1=C\c1cc2ccccc2n2nnnc12" too.
Reply text: 34

Inquiry: Would you kindly repeat that for "COc1ccc2cc(/C=C3\SC(=S)NC3=O)c3nnnn3c2c1" ?
Reply text: 1.97

Inquiry: Now this one: "Cc1cccc2cc(/C=C3\SC(=S)N(CC(=O)O)C3=O)c3nnnn3c12"
Reply text: 44.5

Inquiry: Input "Cc1ccc2c(c1)cc(/C=C1\SC(=S)N(CCC(=O)O)C1=O)c1nnnn12"
Reply text: 1.75

Inquiry: What do you have for "Cc1ccc2cc(/C=C3\SC(=S)N(CC(=O)O)C3=O)c3nnnn3c2c1" ?
Reply text: 31.7

Inquiry: Repeat for the following molecule: "Cc1ccc2cc(/C=C3\SC(=S)NC3=O)c3nnnn3c2c1"
Reply text: 82.9

Inquiry: Another molecule to check: "O=C(O)CCN1C(=O)/C(=C/c2cc3ccccc3n3nnnc23)SC1=S"
Reply text: -1.77

Inquiry: Proceed to "COc1ccc2cc(/C=C3\SC(=S)N(CC(=O)O)C3=O)c3nnnn3c2c1"
Reply text: 3.59

Inquiry: Lookup "COc1ccc2c(c1)cc(/C=C1\SC(=S)N(CC(=O)O)C1=O)c1nnnn12"
Reply text: 7.3

Inquiry: Next molecule: "Cc1cccc2cc(/C=C3\SC(=S)NC3=O)c3nnnn3c12"
Reply text: -9.62

----------
Assign selectivity ratio to each entry below.
Test: Selectivity index, ratio of GI50 for human A549 cells to MIC for Mycobacterium tuberculosis H37Ra ATCC 25177
Format: toxicity, cell-based
Conditions: read-out: Selectivity Index
Lab note: jot the number down without any unit.

Inquiry: Recorded selectivity ratio for "Cc1ccc2cc(/C=C3\SC(=S)NC3=O)c3nnnn3c2c1" , please?
Reply text: 22.2

Inquiry: Follow-up item: "COc1ccc2cc(/C=C3\SC(=S)N(CC(=O)O)C3=O)c3nnnn3c2c1"
Reply text: 1.1

----------
Assay: Cytotoxicity against human PANC1 cells after 48 hrs by MTT assay
Type: cell-based, PANC-1
Settings: PANC1 cells
measurement.kind: GI50 at 48 h

Inquiry: Given "Cc1ccc2cc(/C=C3\SC(=S)N(CC(=O)O)C3=O)c3nnnn3c2c1" , state its recorded GI50 at 48 h.
Reply text: > 100 µg/mL

Inquiry: Moving on to "O=C1NC(=S)S/C1=C\c1cc2ccccc2n2nnnc12"
Reply text: > 100 µg/mL

Inquiry: And for "Cc1ccc2cc(/C=C3\SC(=S)NC3=O)c3nnnn3c2c1" ?
Reply text: > 100 µg/mL
